Values from ChEMBL document CHEMBL1126772

pIC50: −log10 of the molar value. Square brackets hold non-standard residues; d marks the D form. Peptide text beside a SMILES is read from it. * marks the point of attachment. ξ: configuration not given here. ξCha = NC(CC1CCCCC1)C(=O)O; Boc = CC(C)(C)OC(=O)*; CF3 = FC(F)(F)*
Here we list compounds with their recorded pIC50 when tested on Renin (Homo sapiens).
OBSERVED_PROPERTY: pIC50

COMPOUND	pIC50
CCOC(=O)[C@@H](O)[C@H](CC1CCCCC1)NC(=O)[C@H](CC(C)C)NC(=O)[C@H](Cc1ccccc1)NC(=O)OC(C)(C)C	6.96
CCCC(=O)C(=O)[C@H](CC1CCCCC1)NC(=O)[C@H](CC(C)C)NC(=O)[C@H](Cc1ccccc1)NC(=O)C1CCCC1	7.55
CC(C)C[C@H](NC(=O)[C@H](Cc1ccccc1)NC(=O)OC(C)(C)C)C(=O)NC(CC1CCCCC1)C(=O)C(F)(F)F (stereo partly drawn) (Boc-Phe-Leu-[ξCha]-CF3)	6.60
CCOC(=O)C(=O)[C@H](CC1CCCCC1)NC(=O)[C@H](CC(C)C)NC(=O)[C@@H](CC(=O)N1CCOCC1)Cc1ccccc1	8.39

1: CCCC(=O)[C@H](O)[C@H](CC1CCCCC1)NC(=O)[C@H](CC(C)C)NC(=O)[C@H](Cc1ccccc1)NC(=O)C1CCCC1
2: CCCC1([C@H](O)[C@H](CC2CCCCC2)NC(=O)[C@H](CC(C)C)NC(=O)[C@H](Cc2ccccc2)NC(=O)OC(C)(C)C)SCCCS1
Which is greater in pIC50, the first item 1 or the second item 2 ? # respond with the chosen item's label
1
(1: 7.85, 2: 5.66)

---

Target sequence: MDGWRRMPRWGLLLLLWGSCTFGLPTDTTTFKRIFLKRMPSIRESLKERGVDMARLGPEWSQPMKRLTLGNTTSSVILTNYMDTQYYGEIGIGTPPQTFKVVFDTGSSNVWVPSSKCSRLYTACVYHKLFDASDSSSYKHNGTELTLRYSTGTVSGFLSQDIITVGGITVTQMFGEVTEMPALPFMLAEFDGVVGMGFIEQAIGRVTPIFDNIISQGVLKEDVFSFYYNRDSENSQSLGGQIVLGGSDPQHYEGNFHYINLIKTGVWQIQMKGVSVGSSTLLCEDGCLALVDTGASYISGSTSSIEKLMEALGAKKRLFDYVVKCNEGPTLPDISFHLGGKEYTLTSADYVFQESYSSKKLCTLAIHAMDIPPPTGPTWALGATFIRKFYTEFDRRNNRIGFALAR
OBSERVED_PROPERTY: IC50 (nM)

A: CCOC(=O)C(=O)C(CC1CCCCC1)NC(=O)[C@H](CC(C)C)NC(=O)OCc1ccccc1 (stereo partly drawn)
B: CCOC(=O)[C@H](O)[C@H](CC1CCCCC1)NC(=O)[C@H](CC(C)C)NC(=O)[C@H](Cc1ccccc1)NC(=O)OC(C)(C)C
C: CCCC(=O)[C@H](O)[C@H](CC1CCCCC1)NC(=O)[C@H](CC(C)C)NC(=O)[C@H](Cc1ccccc1)NC(=O)OC(C)(C)C
Please rank the 3 items above; order by IC50, the highest number leading. The reply should contain the labels ordered as requested.
A, C, B
